Attribute: EC50
- Tgt: hGLP-1R (Homo sapiens)
- Sequence (P43220 24-463): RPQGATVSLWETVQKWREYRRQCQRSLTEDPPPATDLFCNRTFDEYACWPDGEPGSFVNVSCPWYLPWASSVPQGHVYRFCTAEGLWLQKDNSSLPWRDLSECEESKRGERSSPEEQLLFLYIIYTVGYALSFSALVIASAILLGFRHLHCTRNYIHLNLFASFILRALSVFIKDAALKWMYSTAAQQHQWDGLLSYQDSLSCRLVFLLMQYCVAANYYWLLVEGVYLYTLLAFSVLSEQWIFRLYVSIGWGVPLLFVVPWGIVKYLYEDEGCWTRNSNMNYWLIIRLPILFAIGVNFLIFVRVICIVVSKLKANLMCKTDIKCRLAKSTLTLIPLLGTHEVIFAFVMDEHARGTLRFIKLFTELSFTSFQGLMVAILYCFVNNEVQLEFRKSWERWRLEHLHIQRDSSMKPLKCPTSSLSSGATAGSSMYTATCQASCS
- Assay Summary: Functional cAMP activity in the presence of 1% HSA
- Assay type: cell-based
- Details: read-out: cAMP Rel EC50, hGLP-1R
Starred links: 1 amine or outer side, 2 acyl side, 3 side chain; linkers in the order of their positions; H or OH if unused. Non-standard residues stand in square brackets, D forms with d. Groups on a side chain read outwards from the residue. No end group written: not given here. *: point of attachment. C18 diacid = O=C(O)CCCCCCCCCCCCCCCCC(=O)*; αMePhe(2-F) = C[C@](N)(Cc1ccccc1F)C(=O)O; γGlu = O=C(O)[C@H](CCC(=O)[*:2])N[*:1]; αMe4Pal = C[C@](N)(Cc1ccncc1)C(=O)O; αMeY = C[C@](N)(Cc1ccc(O)cc1)C(=O)O; 4Pal = N[C@@H](Cc1ccncc1)C(=O)O; αMeL = CC(C)C[C@](C)(N)C(=O)O; αMeS = C[C@](N)(CO)C(=O)O; Orn = NCCC[C@H](N)C(=O)O; AEEA = NCCOCCOCC(=O)O; Aib = CC(C)(N)C(=O)O
Answer with a number only, understood to be in µM.

Record excerpt, results attached:
[
  {
    "Substance": "Y[Aib]QGT[αMePhe(2-F)]TSD[4Pal]SI[αMeL]LD[Orn]K([AEEA-γGlu-C18 diacid])AQ[αMe4Pal][Orn]FI[dE][αMeY]LIEGGPSSGDPPPESE-NH2 [Example 729]",
    "EC50 [µM]": 0.027
  },
  {
    "Substance": "H-Y[Aib]QGTFTSD[4Pal]SQ[αMeL]LD[Orn]K([γGlu-γGlu-C18 diacid])AQ[αMe4Pal]AFIE[αMeY]LIEGGPSSGAPPPSGSEE-NH2 [Example 1043]",
    "EC50 [µM]": 0.268
  },
  {
    "Substance": "Y[Aib]QGTFTSD[4Pal]SQ[αMeL]LDKK([γGlu-γGlu-C18 diacid])AQ[αMe4Pal]AFIE[αMe4Pal]LIE[Aib]GPSSGAPPPSGTE-NH2 [Example 1118]",
    "EC50 [µM]": 0.183
  }
]

Sure, the documented EC50 for H-Y[Aib]QGT[αMePhe(2-F)]TSD[4Pal]SI[αMeL]LD[Orn]K([γGlu-γGlu-C18 diacid])AQ[αMe4Pal][Orn]FI[dE][αMeY]LIEGGPSSGEPPPEGTE-NH2 [Example 687] is 0.0213

Memo: Y[Aib]QGTFTSD[4Pal]SK[αMeL]LDKK([AEEA-γGlu-C18 diacid])AQ[Aib]AFIEYLIA[Aib]GESSGEPPPSGE-NH2 [Example 286] , reported EC50: 0.925

Notebook: H-Y[Aib]QGTFTSDFS[Orn][αMeL]LDKK([AEEA-γGlu-C18 diacid])AQ[αMe4Pal]AFIEYLIE[Aib]GESSGAPPPSGE-NH2 [Example 228] , EC50 read as 0.311

According to the records, this substance Y[Aib]QGT[αMePhe(2-F)]TSD[4Pal][αMeS]ILLD[Orn]K([γGlu-γGlu-C18 diacid])AQ[Aib][Orn]FI[dE]YLIEGGPSSGEPPPEGEEE-NH2 [Example 606] displays EC50 of 0.0531

get_value(item= H-Y[Aib]QGTFTSD[4Pal]S[Orn][αMeL]LDKK([γGlu-γGlu-C18 diacid])AQ[αMe4Pal]AFIEYLIAGGPSSGEPPPSGTEEE-NH2 [Example 982] , readout=EC50) returns 0.31

Looking up H-Y[Aib]QGT[αMePhe(2-F)]TSD[4Pal][αMeS]I[αMeL]LD[Orn]K([γGlu-γGlu-C18 diacid])AQ[αMe4Pal]EFI[dE][αMeY]LIEGGPSSGAPPPEGGGEE-NH2 [Example 1220] , I found its EC50 recorded as 0.0485

Record H-Y[Aib]QGTFTSD[4Pal]SQ[αMeL]LD[Orn]K([γGlu-γGlu-C18 diacid])AQ[αMe4Pal]AFIE[αMeY]LIE[Aib]GPSSGEPPPSGSEE-NH2 [Example 1093] . Reported EC50: 0.141

# substance H-Y[Aib]QGTFTSDFS[Orn][αMeL]LDKK([AEEA-AEEA-γGlu-C18 diacid])AQ[Aib]AFIEWLLEGGHSSGAPPPGGE-NH2 [Example 271] ; its EC50 = 0.887
